The compounds below have reported IC50 for Serine/threonine-protein kinase B-raf (Homo sapiens).
# output: bare number, implied unit µM

Study these solved cases before continuing.
Compound | IC50, µM
C/C(Cl)=C\CSc1nc2c(c(=O)[nH]c(=O)n2C)n1CC(O)CCc1ccccc1 (stereo unspecified) | 3.75
Cn1c(=O)[nH]c(=O)c2c1nc(SCC(N)=O)n2Cc1cccc(Br)c1 | 11.1
C/C(Cl)=C/Cn1c(N/N=C(/C)c2ccc([N+](=O)[O-])cc2)nc2c1c(=O)[nH]c(=O)n2C | 17.4
Cn1c(=O)n(Cc2ccccc2)c(=O)c2c1nc(SCCO)n2Cc1ccccc1 | 1.72
Cn1c(=O)[nH]c(=O)c2c1[nH]c(=S)n2Cc1ccc(Cl)cc1 | 2.1
C=CCn1c(N/N=C\c2cccc([N+](=O)[O-])c2)nc2c1c(=O)[nH]c(=O)n2C | 37.5

# ---- query compound ----
Lab note: measured IC50 of C/C(Cl)=C\CSc1nc2c(c(=O)n(Cc3ccccc3)c(=O)n2C)n1Cc1ccccc1 was 10.9
